assay: basal 3T3-L1 adipocyte mitochondrial potential changes, profiling panel, cell-based, JC-1 fluorescence, 3T3-L1 adipocytes, 24 h, 100 nL compound (AID 1168); conditions: JC-1 mitochondrial fluorescence, higher = more signal, called active from +8 up or from −8 down; also: test concentration not given here
Collected z-score values appear next to each entry.
Number only, no unit.

Consider the reported z-score for these compounds:
INSERT INTO measurements (compound, readout_number) VALUES
  ('COc1ccc(O[C@H]2C=C[C@@H](c3ccccc3)O[C@@H]2COC(=O)CCC(C)=NOC[C@@H](C)[C@H](OCc2ccccc2)C(C)C)cc1', -1.61),
  ('COC(=O)[C@H](C)NC(=O)CCC1CC(OC(=O)NCCc2ccc(F)cc2)CC2(CCCC(COC(=O)NCC(c3ccccc3)c3ccccc3)O2)O1 (stereo partly drawn)', 1.18);

Returns the measured z-score for the input compound. Input: `CC(C)=CCCC(C)=CCON=C1C[C@@H](O)[C@@H](O)[C@@H]2[C@@H]3C(=O)N(C[C@@H]4CCCO4)C(=O)[C@@H]3CC[C@@H]12` 0.729

###

experiment: small-molecule binders of probe aInhba, primary screen, biochemical, small-molecule microarray, 635/667 nm fluorescence (AID 1148); settings: higher = more signal;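 also: score merges 667nm spot fluorescence with signal-to-noise for antibody binding to printed compounds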
The label depends only on composite z-score: yes if it is at least -0.2, no if it is smaller.

Worked cases, answers included:
INSERT INTO assay_data (compound, class_label) VALUES
  ('CC(C)[C@H](NC(=O)OC(C)(C)C)[C@@H](O)CC(=O)OC(C)(C)C', 'yes'),
  ('CC(C)(C)N1C(=O)[C@H]2[C@H]3[C@H](O)[C@H](O)CC(=NOCc4ccccc4)[C@@H]3CC[C@H]2C1=O', 'yes'),
  ('O=C1[C@H]2[C@H]3[C@H](O)[C@H](O)CC(=NO[C@@H]4O[C@H](CO)[C@@H](O)[C@H](O)[C@H]4O)[C@H]3CC[C@H]2C(=O)N1Cc1ccc2c(c1)OCO2', 'yes'),
  ('COC(=O)CC=C[C@H](C)[C@H](CO)NS(=O)(=O)c1ccc(C)cc1', 'yes'),
  ('CCCC=C(CCC)[C@@H](NC(=O)c1ccc(-c2ccccc2)cc1)c1ccc(C(=O)OC)cc1', 'yes'),
  ('[N-]=[N+]=NCc1ccccc1C[C@]1(C(=O)NCc2ccccc2)N=C(c2ccc(OCCCO)cc2)O[C@H]1c1ccccc1N=[N+]=[N-]', 'no');

Test whether the compound `C=C(CCCC)C(=O)CC[C@@H](OC(C)=O)c1cccc(OCCO)c1` records composite z-score of -0.2 or higher. no

Test whether the compound N#Cc1ccc(NN2C(C(O)c3cc(C(F)(F)F)cc(C(F)(F)F)c3)C=CC3C(=O)N(c4ccccc4)C(=O)C32)cc1 (centres undefined) records composite z-score of -0.2 or higher. yes

Test whether the compound `CCCC[C@@H]1C[C@H]1[C@@H](NS(=O)(=O)c1cccc2cccnc12)c1ccc(-c2ccccc2)cc1` records composite z-score of -0.2 or higher. yes

Test whether the compound `C[C@H]1CC[C@@H](C(=O)O)N[C@@H]1c1ccc(C#CCN(C)C)cc1` records composite z-score of -0.2 or higher. no

Test whether the compound `CCCC[C@H]1OB(O)C[C@H]2C1=C(C)C[C@H]1C(=O)N(C)C(=O)[C@H]12` records composite z-score of -0.2 or higher. yes

Test whether the compound `COC(=O)C1=C(C)[C@@H](O)[C@@H](C)[C@H](c2c(OC)c(OC)c(C)c(OC)c2OC)O1` records composite z-score of -0.2 or higher. no

Test whether the compound `O=C1[C@H]2[C@H]3[C@H](O)[C@H](O)CC(=NOCc4ccccc4)[C@@H]3CC[C@H]2C(=O)N1C1CCCCC1` records composite z-score of -0.2 or higher. no

Test whether the compound `O=C1[C@H]2[C@H]3[C@H](O)[C@H](O)CC(=NO[C@@H]4O[C@H](CO)[C@@H](O)[C@H](O)[C@H]4O)[C@H]3CC[C@H]2C(=O)N1C1CCCCC1` records composite z-score of -0.2 or higher. yes

Data provenance is PubChem BioAssay.
